Sourced from ChEMBL document CHEMBL4813945

experiment_summary: Metabolic stability in human hepatocytes assessed as clearance incubated up to 120 mins measured per million cells by LC-MS/MS analysis
Assay type: ADME, cell-based, Hepatocyte
protocol_conditions: read-out: CLH
value_type: log10 hepatocyte CLint (log10 of the value in µL/min/1e6 cells)
Please be aware that the numbers have been log10-transformed from hepatocyte CLint in µL/min/1e6 cells.

Worked cases, log10 hepatocyte CLint given:
>  <compound>
COc1cc(/C=C/c2nc(NCc3ccc(C)cc3)c3sccc3n2)cc(OC)c1OC

>  <log10 hepatocyte CLint>
0.32

$$$$
>  <compound>
CCOc1ccc(NC(C)=O)cc1 [PHENACETIN]

>  <log10 hepatocyte CLint>
1.20

$$$$
>  <compound>
COc1ccc2c(c1)[C@]13CCCC[C@@H]1[C@H](C2)N(C)CC3 [DEXTROMETHORPHAN]

>  <log10 hepatocyte CLint>
1.68

$$$$
>  <compound>
O=C(O)Cc1ccccc1Nc1c(Cl)cccc1Cl [DICLOFENAC]

>  <log10 hepatocyte CLint>
1.88

$$$$

Exercise: Param item = COc1ccc2[nH]c([S+]([O-])Cc3ncc(C)c(OC)c3C)nc2c1 (stereo unspecified) [OMEPRAZOLE] ; retrieve measured log10 hepatocyte CLint.
Solution: 1.39

Exercise: Param item = Cc1ncc2n1-c1ccc(Cl)cc1C(c1ccccc1F)=NC2 [MIDAZOLAM] ; retrieve measured log10 hepatocyte CLint.
Solution: 1.63
